Tested on: HCC-2998 colon
Assay: NCI-60 one-dose screen, 48 h (100 = growth as untreated, 0 = no growth, -100 = all killed)
Conditions: 10 µM unless noted
This is part of a sample that, as a whole, favours compounds with a hit. Of some 83,000 tested, about 20% had one in any assay.
OUTCOME_MEASURE: growth (%)
Number only, in %; omit the unit.

> print(dat)
                                    molecule  outcome.measure  measured.result
 1  COc1cccc2nc(Nc3cccc(NC(=O)c4ccc(CN5CCN(C)CC5)c(C(F)(F)F)c4)c3)ccc12           growth            -96.8
 2  O=Cc1cncc(-c2ccc3ncnc(N4CCc5cc(F)c(Cl)cc54)c3c2)c1           growth               64
 3  CN1CCN(C(=O)CCN(C(=O)Oc2cc3c(c4ccccc24)[C@H](CCl)CN3C(=O)c2cc3cc(OCCCN4CCC4)ccc3[nH]2)[C@H]2CCSSC2)CC1           growth            -91.2
 4  O=C(c1ccc(Cl)cc1)C1[C@H](c2ccccc2Cl)[C@@H](c2ccccc2)NC12C(=O)Nc1ccc(Br)cc12 (stereo partly drawn)           growth            -94.2
 5  CN(C)c1nc(NCCNS(=O)(=O)c2ccc(C(=O)/C=C/c3ccc(F)cc3)cc2)nc(N2CCOCC2)n1           growth            -96.5
 6  COc1cc(/C=C/C(=O)c2ccc(S(=O)(=O)NCCNc3nc(N(C)C)nc(N4CCOCC4)n3)cc2)cc(OC)c1OC           growth             -100
 7  COc1cc(CNC(=O)C[C@H](C)CCC=C(C)C)ccc1OCc1cn(-c2ccc(Br)cc2)nn1           growth             95.8
 8   c1n[nH]cc1-c1nc2ccc3cn[nH]c3c2c2c1CCCC2           growth              104
 9  O=C(CSc1nnc(-c2ccc(-c3nc4ccccc4[nH]3)cc2)o1)Nc1ccc(Cl)cc1           growth             59.6
10  O=C(NN1C(=O)/C(=C/C=C/c2ccc([N+](=O)[O-])o2)SC1=S)c1ccc(O)cc1           growth            -92.6

Input: Please give the measured growth for this molecule: `C[C@@H]1[C@H]2C[C@@H](C[C@H]1NCc1nc3ccccc3n1C1CCCCCC1)C2(C)C`
Output: 37.6

Input: What value of growth has been recorded for this entry: `N#Cc1cc(-c2ccc3ncnc(N4CCc5cc(F)c(Cl)cc54)c3c2)cnc1N`
Output: 50.1

Input: Which measured growth value corresponds to `O=C(CSc1nc2sc3c(c2c(=O)n1-c1ccc(Cl)cc1)CCCC3)N/N=C/C=C/c1ccccc1` ?
Output: 6.29

Input: Find the recorded growth belonging to `O=C(CSc1nnc(-c2ccc(-c3nc4ccccc4[nH]3)cc2)o1)Nc1ccccc1` and report it.
Output: 92.3

Input: What growth value was documented for this molecule, `Cc1ccc(-c2cc(-c3ccccc3)[nH]c(=O)c2C#N)cc1` ?
Output: 114
